// provenance: ChEMBL document CHEMBL1133731

Target: Neuronal acetylcholine receptor; alpha4/beta2 (Rattus norvegicus, UniProt P09483+P12390)
Sequence (P09483 whole entry): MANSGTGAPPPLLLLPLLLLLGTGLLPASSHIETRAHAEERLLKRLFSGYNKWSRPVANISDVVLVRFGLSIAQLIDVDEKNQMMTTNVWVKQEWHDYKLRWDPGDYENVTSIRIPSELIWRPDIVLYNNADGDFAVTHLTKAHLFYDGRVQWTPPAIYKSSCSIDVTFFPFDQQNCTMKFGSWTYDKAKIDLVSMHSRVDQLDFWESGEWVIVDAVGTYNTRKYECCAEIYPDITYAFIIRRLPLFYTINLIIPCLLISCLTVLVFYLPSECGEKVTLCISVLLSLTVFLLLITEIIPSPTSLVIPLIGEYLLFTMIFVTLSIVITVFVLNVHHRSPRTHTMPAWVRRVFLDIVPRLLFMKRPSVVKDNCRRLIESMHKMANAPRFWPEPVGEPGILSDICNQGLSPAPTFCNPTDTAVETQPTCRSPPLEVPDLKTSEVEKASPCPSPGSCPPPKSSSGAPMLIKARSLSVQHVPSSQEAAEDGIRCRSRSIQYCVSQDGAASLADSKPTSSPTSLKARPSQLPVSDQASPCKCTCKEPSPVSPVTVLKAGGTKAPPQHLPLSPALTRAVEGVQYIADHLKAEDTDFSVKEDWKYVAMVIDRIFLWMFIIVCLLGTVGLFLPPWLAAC
Sequence (P12390 whole entry): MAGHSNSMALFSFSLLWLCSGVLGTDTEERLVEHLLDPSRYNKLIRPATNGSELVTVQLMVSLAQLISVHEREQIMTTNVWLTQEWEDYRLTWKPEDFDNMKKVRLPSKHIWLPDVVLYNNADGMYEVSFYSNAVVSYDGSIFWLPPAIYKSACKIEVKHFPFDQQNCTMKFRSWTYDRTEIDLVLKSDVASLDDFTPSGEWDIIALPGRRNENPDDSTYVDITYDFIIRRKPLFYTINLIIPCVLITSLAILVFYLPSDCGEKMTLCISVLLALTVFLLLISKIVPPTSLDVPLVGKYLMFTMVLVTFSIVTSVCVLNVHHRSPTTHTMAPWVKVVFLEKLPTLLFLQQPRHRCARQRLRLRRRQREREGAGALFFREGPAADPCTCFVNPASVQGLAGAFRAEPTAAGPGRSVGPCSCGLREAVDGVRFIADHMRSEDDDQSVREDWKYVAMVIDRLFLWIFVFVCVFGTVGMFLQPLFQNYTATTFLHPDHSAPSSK
Assay: In vitro binding affinity for Nicotinic acetylcholine receptor alpha4-beta2 in rat cerebral cortical membrane using [3H]cytisine as radioligand
Type: cell membranes
Settings: read-out: IC50
Exercise: for every item that follows, state its recorded pIC50.
Numbers only, as −log10 of the molar value.

Consider the following illustrative entries.
COMPOUND	pIC50
C1=C(c2cccnc2)CC2CCC1N2 (centres undefined)	8.17
CCSc1ccc(N2CCCNCC2)cn1	6.77
C1=CC(CSc2cncc(N3CCCNCC3)c2)C=C1	8.10

Record pIC50 per entry; entries follow.
1. c1cncc(OC2CCNC2)c1 (centres undefined)
2. CC(C)COc1cncc(N2CCCNCC2)c1
3. COc1ccc(N2CCCNCC2)cn1
4. COc1cncc(N2CCCNCC2)c1
5. NC(=O)c1cncc(N2CCCNCC2)c1
6. OCCOc1cncc(N2CCCNCC2)c1

[7.00, 8.66, 6.77, 8.72, 7.70, 8.74]
